Target: human HER3 endogenously expressed on human cancer cells (SK-Br-3, BT-474, MCF7) (human, UniProt P21860 20-1342)
Test: cell-based or functional assay
REPORTED_PROPERTY: SK-Br-3 proliferation IC50 (nM)

INSERT INTO measurements (binder, experimental_value) VALUES
  ('MOR12921 (antibody, human IgG1, lambda, V domains shown, Tested as IgG) VH: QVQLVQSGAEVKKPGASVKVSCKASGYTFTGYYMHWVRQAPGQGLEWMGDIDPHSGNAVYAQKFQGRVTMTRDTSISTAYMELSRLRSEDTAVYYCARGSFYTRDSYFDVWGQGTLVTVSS VL: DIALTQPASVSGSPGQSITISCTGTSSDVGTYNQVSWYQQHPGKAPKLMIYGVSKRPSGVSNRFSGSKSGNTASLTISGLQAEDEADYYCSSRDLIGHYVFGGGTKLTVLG', 0.432),
  ('MOR13657 (antibody, human IgG1, lambda, V domains shown, Tested as IgG) VH: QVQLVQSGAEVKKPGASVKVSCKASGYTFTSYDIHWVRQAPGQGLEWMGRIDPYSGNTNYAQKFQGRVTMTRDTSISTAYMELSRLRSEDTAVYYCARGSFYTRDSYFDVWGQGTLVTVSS VL: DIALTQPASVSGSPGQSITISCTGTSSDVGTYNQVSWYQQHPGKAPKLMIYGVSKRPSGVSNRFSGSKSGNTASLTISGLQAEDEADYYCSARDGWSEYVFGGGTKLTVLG', 0.179),
  ('MOR13658 (antibody, human IgG1, lambda, V domains shown, Tested as IgG) VH: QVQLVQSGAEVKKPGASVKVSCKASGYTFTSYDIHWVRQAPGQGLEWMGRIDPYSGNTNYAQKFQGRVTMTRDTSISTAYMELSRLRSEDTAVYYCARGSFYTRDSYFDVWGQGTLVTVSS VL: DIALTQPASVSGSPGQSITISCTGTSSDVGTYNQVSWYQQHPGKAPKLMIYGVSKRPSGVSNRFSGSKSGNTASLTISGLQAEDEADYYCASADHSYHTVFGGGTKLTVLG', 0.191);

Values from patent US20130251703A1
